# system.name: full length human PAR-2 (human, UniProt P55085 26-397)
# Sequence (P55085 26-397 G138A limits assumed): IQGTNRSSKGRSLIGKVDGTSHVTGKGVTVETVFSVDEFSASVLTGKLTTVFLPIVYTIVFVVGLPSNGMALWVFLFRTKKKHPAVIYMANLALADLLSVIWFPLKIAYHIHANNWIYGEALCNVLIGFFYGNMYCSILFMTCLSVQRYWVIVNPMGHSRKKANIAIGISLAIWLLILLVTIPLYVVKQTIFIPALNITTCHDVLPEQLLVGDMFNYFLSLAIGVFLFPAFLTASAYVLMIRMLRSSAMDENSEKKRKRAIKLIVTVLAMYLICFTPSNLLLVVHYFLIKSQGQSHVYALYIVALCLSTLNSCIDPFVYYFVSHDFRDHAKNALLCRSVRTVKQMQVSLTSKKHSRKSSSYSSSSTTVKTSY
# experiment.notes: cell-based or functional assay
Field: IC50, NF-kB-luciferase, 20 nM Trypsin. Provide a value for each of the binders that follow.

These solved cases illustrate the format of a correct answer.
binder	IC50, NF-kB-luciferase, 20 nM Trypsin
H4H583P (antibody, human IgG4, V domains shown, also called H1H583P variable regions) VH: QVQLVESGGGVVQPGMSLRLSCTASGFTFRRYGMHWVRQAPGKGLEWVAVIWYDGSNKYYADSVKGRFTITRDNSKNTLYLQMNSLRAEDTAIYFCASEITIGDWFDPRGQGTLVTVSS VL: AIQMTQSPSSLSASVGDRVTITCRASQGIRNDLGWFQQKPGKVPKLLIYAASTLHSGVPSRFSGSGFGTDFTLTISSLQPEDFATYYCLQDFNYPLTFGGGTKVEIK	14 nM
H4H580P (antibody, human IgG4, V domains shown, also called H1H580P variable regions) VH: QVQLVESGGGVVQPGRSLRLSCVASGFTFSRYGMHWVRQAPGKGLEWVVVISYDGINKYYADSVKGRFTISRDNSKNTVYLQMNSLRAEDTAVYHCAKGDFWSGYFDYWGQGTLVTVSS VL: DIVMTQTPLSSPVTLGQPASISCRSSQSLVHSDGNTYLSWLHQRPGQPPRLLIYKISNRFSGVPDRFSGSGAGTDFTLQISRVEAEDVGIYYCMQATQFPTFGGGTKVEIK	3.5 nM
H4H588N (antibody, human IgG4, V domains shown, also called H2M588N variable regions) VH: EVQLLESGGGLVQPGGSLRLSCAASGFTFSSYAMTWVRQAPGKGLYWVSAISGGRGSAYYADSVKGRFTISRDNSKNTLYLQMNSLRAEDTAVYYCAKEGDSGYDLAYWGRGTLVTVSS VL: DIQMTQSPSSLSASVGDRVTITCRARQGISNNLAWLQQKPGKAPKSLIYAASSLQSGIPSKFSGSGSGTYFTLTISSLQPEDFATYYCQQYKSSPLTFGGGTKVEIK	16.9 nM
H4H591N (antibody, human IgG4, V domains shown, also called H2M591N variable regions) VH: EVQLLESGGGLVQPGGSLRLSCATSGFTFSRYTMTWVRQAPGKGLFWVSGIGGSGGRAYYADSVKGRFTLSRDNSKNTLYLQMNSLRAEDTAVYYCAKEGDSGYDLDYWGRGTLVTVSS VL: DIQMTQYPSSLSASVGDRVTITCRARQGISNYLAWLQQKPGKAPKSLIYAASSLQRGVPSKFSGSGSGTDFTLTISSLQPEDSATYYCQQYKISPLTFGGGTKVEIK	204 nM
H4H581P (antibody, human IgG4, V domains shown, also called mAb H4H581P; H1H581P variable regions) VH: QVQLVESGGGVVQPGRSLRLSCVASGFTFSRYGIHWVRQAPGKGLEWVIVISYDGINKYYADSVKGRFTISRDNSKNTVYLQMNSLRAEDTAVYYCAKGDFWSGYFDYWGQGTLVTVSS VL: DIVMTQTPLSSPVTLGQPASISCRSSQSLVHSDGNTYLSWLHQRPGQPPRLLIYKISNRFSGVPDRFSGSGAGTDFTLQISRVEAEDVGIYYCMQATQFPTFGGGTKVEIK	1.1 nM

Record IC50, NF-kB-luciferase, 20 nM Trypsin for all entries; do not skip any.
1. H4H618N (antibody, human IgG4, V domains shown, also called H2M618N variable regions) VH: EVQLLESGGGLVQPGGSLRLSCAASGFTFRSYTMTWVRQAPGKGLDWVSGITDSGAGTYYGDSVKGRFTISRDNSKNTLYLQMNSLRAEDTAVYYCVKEGDSGYDLDYWGQGTLVTVSS VL: DIQMTQSPSSLSASVGDRVTITCRASQGISTYLAWLQQKPGKAPKSLIYATSSLQSGVPSKFSGSRSGTDFTLTISSLQPEDFATYYCQQYKSSPLTFGGGTKVEIK
2. H4H579P (antibody, human IgG4, V domains shown, also called H1H579P variable regions) VH: QVQLVESGGGVVQPGRSLRLSCVASGFTFSRYGMHWVRQAPGKGLEWLIVISYDGINKYYADSVKGRFTISRDNSKNTVYLQMNSLRAEDTGVYYCAKGDFWSGYFDYWGQGTLVTVSS VL: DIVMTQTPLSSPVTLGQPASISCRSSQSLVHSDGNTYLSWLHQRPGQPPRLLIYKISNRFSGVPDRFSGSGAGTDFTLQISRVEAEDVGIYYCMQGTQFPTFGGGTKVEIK
3. H4H585P (antibody, human IgG4, V domains shown, also called H1H585P variable regions) VH: QVQLVESGGGVVQPGRSLRLSCVASGFTFSRYGMHWVRQAPGKGLEWLIVISYDGINKYYADSVKGRFTISRDNSKNTVYLQMNSLRAEDTAVYYCAKGDFWSGYFDYWGQGTLVTVSS VL: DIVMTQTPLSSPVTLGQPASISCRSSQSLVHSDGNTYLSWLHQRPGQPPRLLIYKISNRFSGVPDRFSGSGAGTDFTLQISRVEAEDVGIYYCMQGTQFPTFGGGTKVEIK
4. H4H584P (antibody, human IgG4, V domains shown, also called H1H584P variable regions) VH: QVQLVESGGGVVQPGRSLRLSCVASGFTFSRYGMHWVRQAPGKGLEWVVVISYDGINKYYADSVKGRFTISRDNSKNTVYLQMNSLRAEDTAVYYCAKGDFWSGYFDYWGQGTLVTVSS VL: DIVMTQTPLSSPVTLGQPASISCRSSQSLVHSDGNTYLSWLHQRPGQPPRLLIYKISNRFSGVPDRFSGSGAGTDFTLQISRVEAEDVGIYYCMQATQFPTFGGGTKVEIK

Marked response:
1. 50.2 nM
2. 4.1 nM
3. 8.9 nM
4. 5.6 nM
